I'd be grateful if you could share measured % Intact of 89Zr-complexes for these entries.
ASSAY PROTOCOL: In vitro metal competition study
Format: physicochemical
SETUP CONDITIONS: Gd3+, PBS pH 7.4, 37 C, 4 d
Form entry: enter the amount, then its unit.

# batch: return % Intact of 89Zr-complexes for each of the 4 compounds below
1. NC(=O)CN1CCN(CC(N)=O)CCN(CC(N)=O)CCN(CC(N)=O)CC1.[89Zr+4] [89Zr-DOTAM]
2. CC(=O)N1CCCCCNC(=O)CCC(=O)N2CCCCCNC(=O)CCC(=O)N(CCCCCN)[O][89Zr+]([O]1)[O]2 [89Zr-DFO, reference compound]
3. O=C1CN2CCN3CCN4CCN(CC2)CC(=O)[O][89Zr]([O]1)([O]C(=O)C3)[O]C(=O)C4 [89Zr-DOTA]
4. O=P1(O)CN2CCN3CCN4CCN(CC2)CP(=O)(O)[O][89Zr]([O]1)([O]P(=O)(O)C3)[O]P(=O)(O)C4 [89Zr-DOTP]

1: 88.8 ± 0.6%; 2: 98.4 ± 0.3%; 3: 100%; 4: 93.2 ± 1.0%

###

Assignment: determine reported % Intact of 89Zr-complexes for the given compounds.
ASSAY PROTOCOL: In vitro EDTA challenge study
Type: physicochemical
SETUP CONDITIONS: EDTA 100-fold, pH 5.0, 37 C, 1 d
Answers are plain numbers, in %.

- COMPOUND: "O=C1CN2CCN3CCN4CCN(CC2)CC(=O)[O][89Zr]([O]1)([O]C(=O)C3)[O]C(=O)C4 [89Zr-DOTA]"
  % Intact of 89Zr-complexes, %: 100
- COMPOUND: "NC(=O)CN1CCN(CC(N)=O)CCN(CC(N)=O)CCN(CC(N)=O)CC1.[89Zr+4] [89Zr-DOTAM]"
  % Intact of 89Zr-complexes, %: 84.4

Fill in % Intact of 89Zr-complexes for each of the 2 compounds listed.
1. CC(=O)N1CCCCCNC(=O)CCC(=O)N2CCCCCNC(=O)CCC(=O)N(CCCCCN)[O][89Zr+]([O]1)[O]2 [89Zr-DFO, reference compound]
2. O=P1(O)CN2CCN3CCN4CCN(CC2)CP(=O)(O)[O][89Zr]([O]1)([O]P(=O)(O)C3)[O]P(=O)(O)C4 [89Zr-DOTP]

1. 6.6
2. 91.8

###

ASSAY PROTOCOL: In vitro metal competition study
Assay type: physicochemical
SETUP CONDITIONS: Mg2+, PBS pH 7.4, 37 C, 2 h
Task for the reader: assign each of the following compounds its reported % Intact of 89Zr-complexes.
Answers are plain numbers, in %.

For orientation, consider the following solved cases.
- COMPOUND: "CC(=O)N1CCCCCNC(=O)CCC(=O)N2CCCCCNC(=O)CCC(=O)N(CCCCCN)[O][89Zr+]([O]1)[O]2 [89Zr-DFO, reference compound]"
  % Intact of 89Zr-complexes [%]: 99.3
- COMPOUND: "O=P1(O)CN2CCN3CCN4CCN(CC2)CP(=O)(O)[O][89Zr]([O]1)([O]P(=O)(O)C3)[O]P(=O)(O)C4 [89Zr-DOTP]"
  % Intact of 89Zr-complexes [%]: 99.2
- COMPOUND: "O=C1CN2CCN3CCN4CCN(CC2)CC(=O)[O][89Zr]([O]1)([O]C(=O)C3)[O]C(=O)C4 [89Zr-DOTA]"
  % Intact of 89Zr-complexes [%]: 100

Turning now to a further record.
# query: % Intact of 89Zr-complexes of entry NC(=O)CN1CCN(CC(N)=O)CCN(CC(N)=O)CCN(CC(N)=O)CC1.[89Zr+4] [89Zr-DOTAM]
93.6

###

ASSAY PROTOCOL: In vitro EDTA challenge study
Format: physicochemical
SETUP CONDITIONS: EDTA 1000-fold, pH 7.0, 37 C, 3 d
MEASUREMENT LABEL: % Intact of 89Zr-complexes (%)
One number for each entry, in %.

For every listed record, write down its % Intact of 89Zr-complexes.
1. CC(=O)N1CCCCCNC(=O)CCC(=O)N2CCCCCNC(=O)CCC(=O)N(CCCCCN)[O][89Zr+]([O]1)[O]2 [89Zr-DFO, reference compound]
2. NC(=O)CN1CCN(CC(N)=O)CCN(CC(N)=O)CCN(CC(N)=O)CC1.[89Zr+4] [89Zr-DOTAM]
3. O=P1(O)CN2CCN3CCN4CCN(CC2)CP(=O)(O)[O][89Zr]([O]1)([O]P(=O)(O)C3)[O]P(=O)(O)C4 [89Zr-DOTP]
4. O=C1CN2CCN3CCN4CCN(CC2)CC(=O)[O][89Zr]([O]1)([O]C(=O)C3)[O]C(=O)C4 [89Zr-DOTA]

24.5
69.9
91.5
100

###

ASSAY PROTOCOL: In vitro metal competition study
Format: physicochemical
SETUP CONDITIONS: Cu2+, PBS pH 7.4, 37 C, 2 h
MEASUREMENT LABEL: % Intact of 89Zr-complexes (%)
Answers are plain numbers, in %.

- COMPOUND: "O=C1CN2CCN3CCN4CCN(CC2)CC(=O)[O][89Zr]([O]1)([O]C(=O)C3)[O]C(=O)C4 [89Zr-DOTA]"
  NUMERIC RESULT: 100

Take each entry in turn and give its % Intact of 89Zr-complexes.
1. CC(=O)N1CCCCCNC(=O)CCC(=O)N2CCCCCNC(=O)CCC(=O)N(CCCCCN)[O][89Zr+]([O]1)[O]2 [89Zr-DFO, reference compound]
2. O=P1(O)CN2CCN3CCN4CCN(CC2)CP(=O)(O)[O][89Zr]([O]1)([O]P(=O)(O)C3)[O]P(=O)(O)C4 [89Zr-DOTP]
3. NC(=O)CN1CCN(CC(N)=O)CCN(CC(N)=O)CCN(CC(N)=O)CC1.[89Zr+4] [89Zr-DOTAM]

[98.9, 98.4, 91.9]

###

ASSAY PROTOCOL: In vitro EDTA challenge study
Assay type: physicochemical
SETUP CONDITIONS: EDTA 1000-fold, pH 7.0, 37 C, 5 d
Exercise: for every item that follows, state its recorded % Intact of 89Zr-complexes.
Give bare numbers, in %.

Answered cases to consult:
- COMPOUND: "O=P1(O)CN2CCN3CCN4CCN(CC2)CP(=O)(O)[O][89Zr]([O]1)([O]P(=O)(O)C3)[O]P(=O)(O)C4 [89Zr-DOTP]"
  % Intact of 89Zr-complexes [%]: 84.9
- COMPOUND: "NC(=O)CN1CCN(CC(N)=O)CCN(CC(N)=O)CCN(CC(N)=O)CC1.[89Zr+4] [89Zr-DOTAM]"
  % Intact of 89Zr-complexes [%]: 58.2
- COMPOUND: "O=C1CN2CCN3CCN4CCN(CC2)CC(=O)[O][89Zr]([O]1)([O]C(=O)C3)[O]C(=O)C4 [89Zr-DOTA]"
  % Intact of 89Zr-complexes [%]: 100

Could you now look at the following compound, please?
Entry CC(=O)N1CCCCCNC(=O)CCC(=O)N2CCCCCNC(=O)CCC(=O)N(CCCCCN)[O][89Zr+]([O]1)[O]2 [89Zr-DFO, reference compound] has what % Intact of 89Zr-complexes?
21.4

###

ASSAY PROTOCOL: In vitro EDTA challenge study
Type: physicochemical
SETUP CONDITIONS: EDTA 1000-fold, pH 7.0, 37 C, 7 d
MEASUREMENT LABEL: % Intact of 89Zr-complexes (%)
Answers are plain numbers, in %.

Sample records with % Intact of 89Zr-complexes:
- COMPOUND: "NC(=O)CN1CCN(CC(N)=O)CCN(CC(N)=O)CCN(CC(N)=O)CC1.[89Zr+4] [89Zr-DOTAM]"
  UNIT TEXT: "%"
  % Intact of 89Zr-complexes: 47.4
- COMPOUND: "CC(=O)N1CCCCCNC(=O)CCC(=O)N2CCCCCNC(=O)CCC(=O)N(CCCCCN)[O][89Zr+]([O]1)[O]2 [89Zr-DFO, reference compound]"
  UNIT TEXT: "%"
  % Intact of 89Zr-complexes: 20.3
- COMPOUND: "O=P1(O)CN2CCN3CCN4CCN(CC2)CP(=O)(O)[O][89Zr]([O]1)([O]P(=O)(O)C3)[O]P(=O)(O)C4 [89Zr-DOTP]"
  UNIT TEXT: "%"
  % Intact of 89Zr-complexes: 79.4

Now look at this one.
Which value of % Intact of 89Zr-complexes has been reported for O=C1CN2CCN3CCN4CCN(CC2)CC(=O)[O][89Zr]([O]1)([O]C(=O)C3)[O]C(=O)C4 [89Zr-DOTA] in the records?
100

###

Please respond with reported % Intact of 89Zr-complexes for every item in the list.
ASSAY PROTOCOL: In vitro metal competition study
Type: physicochemical
SETUP CONDITIONS: Zn2+, PBS pH 7.4, 37 C, 1 d
Answers are plain numbers, in %.

Examples from the recorded data:
- MOLECULE: "NC(=O)CN1CCN(CC(N)=O)CCN(CC(N)=O)CCN(CC(N)=O)CC1.[89Zr+4] [89Zr-DOTAM]"
  % Intact of 89Zr-complexes / %: 89.4
- MOLECULE: "O=C1CN2CCN3CCN4CCN(CC2)CC(=O)[O][89Zr]([O]1)([O]C(=O)C3)[O]C(=O)C4 [89Zr-DOTA]"
  % Intact of 89Zr-complexes / %: 100
- MOLECULE: "O=P1(O)CN2CCN3CCN4CCN(CC2)CP(=O)(O)[O][89Zr]([O]1)([O]P(=O)(O)C3)[O]P(=O)(O)C4 [89Zr-DOTP]"
  % Intact of 89Zr-complexes / %: 95.4

# ---- query molecule ----
If you can, please state the reported % Intact of 89Zr-complexes value of CC(=O)N1CCCCCNC(=O)CCC(=O)N2CCCCCNC(=O)CCC(=O)N(CCCCCN)[O][89Zr+]([O]1)[O]2 [89Zr-DFO, reference compound] .
98.8
